readout label: melting point

Reference set (4 entries):
| compound | result value |
| --- | --- |
| Cc1cc(Nc2ccnc(Nc3ccc(C(=O)N(C)C4CCCN(CCCC(F)(F)F)C4)cc3)n2)ccc1F (centres unmarked) [Example 2] | 100 to 110 °C |
| CN(C(=O)c1ccc(Nc2nccc(Nc3ccc(F)cc3)n2)cc1)C1CCN2CCCC2C1 (centres unmarked) [Example 7] | 230 to 235 °C |
| CN(C(=O)c1ccc(Nc2nccc(Nc3ccc(C(F)(F)F)cc3)n2)cc1)C1CCOCC1 [Example 5] | 254 to 256 °C |
| CN1CCC(N(C)C(=O)c2ccc(Nc3nccc(Nc4ccc(C(F)(F)F)cc4)n3)cc2)CC1 [Example 4] | 238 to 244 °C |

Continue with the next compound.
Per the record, Cc1cc(Nc2ccnc(Nc3ccc(C(=O)N(C)C4CCCN(Cc5csnn5)C4)cc3)n2)ccc1F (centres unmarked) [Example 3] has melting point of 125 to 130 °C
